# TESTED_TARGET: Indoleamine 2,3-dioxygenase 1 (Homo sapiens)
# Sequence (P14902 whole entry): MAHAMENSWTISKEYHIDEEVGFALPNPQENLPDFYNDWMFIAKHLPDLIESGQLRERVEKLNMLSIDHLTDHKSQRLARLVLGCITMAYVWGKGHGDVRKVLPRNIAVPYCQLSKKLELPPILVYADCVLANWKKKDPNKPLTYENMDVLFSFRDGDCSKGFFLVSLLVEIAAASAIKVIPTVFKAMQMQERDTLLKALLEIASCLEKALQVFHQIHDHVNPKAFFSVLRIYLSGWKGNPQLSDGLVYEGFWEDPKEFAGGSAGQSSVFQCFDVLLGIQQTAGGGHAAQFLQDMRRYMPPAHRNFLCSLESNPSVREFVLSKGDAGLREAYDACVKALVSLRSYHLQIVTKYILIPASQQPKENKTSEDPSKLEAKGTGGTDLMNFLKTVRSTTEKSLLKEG
# ASSAY_TEXT: Inhibition of IDO1 in interferon-gamma-induced human SKOV3 cells assessed as N-formylkynurenine formation using L-tryptophan as substrate measured after 24 hrs by fluorescence assay
pIC50: −log10 of the molar value.
ATTRIBUTE_MEASURED: pIC50

CS(=N)(=O)CC(=O)NCCSc1nonc1/C(=N/O)Nc1ccc(F)c(Br)c1 (centres undefined) : 7.85
COc1nonc1/C(=N/O)Nc1ccc(F)c(Br)c1 : 7.41

1: N#Cc1cc(N/C(=N\O)c2nonc2SCCNC(=O)CS(N)(=O)=O)ccc1F
2: CSc1nonc1/C(=N/O)Nc1ccc(F)c(Br)c1
Pick one: 1 or 2 . Which one has the lower reported pIC50? Please respond with the label that marks your chosen entry.
1

###

# ASSAY_TEXT: Half life in mouse at 10 mg/kg, po by capillary micro-sampling analysis
# Format: ADME, organism-based
# TEST_CONDITIONS: in vivo
ATTRIBUTE_MEASURED: half-life (min)

NS(=O)(=O)NCC(=O)NCCSc1nonc1/C(=N/O)Nc1ccc(F)c(C(F)F)c1 : 216
NS(=O)(=O)CC(=O)NCCSc1nonc1/C(=N/O)Nc1cccc(Cl)c1 : 156

###

# ASSAY_TEXT: Half life in mouse liver microsomes
# Format: ADME, Microsome
ATTRIBUTE_MEASURED: half-life (min)

Worked cases, answers included:
C[C@H](CSc1nonc1/C(=N/O)Nc1ccc(F)c(Br)c1)NC(=O)CS(N)(=O)=O : 32.2
C[C@@H](CSc1nonc1/C(=N/O)Nc1ccc(F)c(Br)c1)NC(=O)CS(N)(=O)=O : 23.9
NS(=O)(=O)CC(=O)NCCSc1nonc1/C(=N/O)Nc1cccc(Cl)c1 : 75.7
NS(=O)(=O)CC(=O)NCCSc1nonc1/C(=N/O)Nc1ccc(F)c(C(F)(F)F)c1 : 55.4
CC(C)(O)CC(=O)NCCSc1nonc1/C(=N/O)Nc1ccc(F)c(C(F)F)c1 : 10.5

a: NS(=O)(=O)CC(=O)NCCSc1nonc1/C(=N/O)Nc1ccc(F)c(Br)c1
b: CS(=O)(=O)CC(=O)NCCSc1nonc1/C(=N/O)Nc1ccc(F)c(C(F)F)c1
c: CS(=O)(=O)CCC(=O)NCCSc1nonc1/C(=N/O)Nc1ccc(F)c(Br)c1
d: N#CCC(=O)NCCSc1nonc1/C(=N/O)Nc1ccc(F)c(C(F)F)c1
Sort the 4 compounds by half-life; largest first, smallest last. Please, when replying, give the labels in the order that was requested.
c, a, b, d
(c: 99.3 min, a: 67 min, b: 45.9 min, d: 16.7 min)

a: CS(=O)(=O)NCCSc1nonc1/C(=N/O)Nc1ccc(F)c(Br)c1
b: NS(=O)(=O)CC(=O)NCCSc1nonc1/C(=N/O)Nc1ccc(F)c(C(F)F)c1
Which has the higher half-life, a or b ? Please respond with the label that marks your chosen entry.
b
(b: 64 min, a: 17.4 min)

1: NS(=O)(=O)CC(=O)NCCSc1nonc1/C(=N/O)Nc1cccc(Br)c1
2: NS(=O)(=O)NCC(=O)NCCSc1nonc1/C(=N/O)Nc1ccc(F)c(C(F)F)c1
3: NS(=O)(=O)CC(=O)NCCSc1nonc1/C(=N/O)Nc1cccc(C(F)(F)F)c1
Order each entry by recorded half-life, climbing from the minimum. Please, when replying, give the labels in the order that was requested.
3, 1, 2

A: N#Cc1cc(N/C(=N\O)c2nonc2SCCNC(=O)CS(N)(=O)=O)ccc1F
B: CC1(C(=O)NCCSc2nonc2/C(=N/O)Nc2ccc(F)c(C(F)F)c2)CCN1 (stereo not given)
C: CS(=N)(=O)CC(=O)NCCSc1nonc1/C(=N/O)Nc1ccc(F)c(Br)c1 (stereo not given)
Order each entry by recorded half-life, climbing from the minimum. Please, when replying, give the labels in the order that was requested.
B, C, A

A: O=C(NCCSc1nonc1/C(=N/O)Nc1ccc(F)c(C(F)F)c1)C1CS(=O)(=O)C1
B: NS(=O)(=O)CC(=O)NCCSc1nonc1/C(=N/O)Nc1cccc(C(F)F)c1
Pick one: A or B . Which one has the lower reported half-life? Please respond with the label that marks your chosen entry.
A

###

# ASSAY_TEXT: Cmax in mouse at 10 mg/kg, po by capillary micro-sampling analysis
# Type: ADME, organism-based
# Parameters: dose 10 mg/kg, route oral
# TEST_CONDITIONS: in vivo
ATTRIBUTE_MEASURED: Cmax (µM)

P: NS(=O)(=O)CC(=O)NCCSc1nonc1/C(=N/O)Nc1cccc(Cl)c1
Q: NS(=O)(=O)NCC(=O)NCCSc1nonc1/C(=N/O)Nc1ccc(F)c(C(F)F)c1
Pick one: P or Q . Which one has the lower reported Cmax? Please respond with the label that marks your chosen entry.
Q
(Q: 3.3 µM, P: 5 µM)

###

# ASSAY_TEXT: Cmax in rat at 5 mg/kg, po administered as single dose by capillary micro-sampling analysis
# Type: ADME, organism-based
# Design: dose 5 mg/kg, route oral
# TEST_CONDITIONS: in vivo
ATTRIBUTE_MEASURED: Cmax (µM)
Numeric only. Scale: µM

Name the recorded Cmax for `NS(=O)(=O)CC(=O)NCCSc1nonc1/C(=N/O)Nc1cccc(Cl)c1` .
5.6

###

# ASSAY_TEXT: Protein binding in rat plasma
# Type: ADME, cell-free
# TEST_CONDITIONS: read-out: PPB (converted)
ATTRIBUTE_MEASURED: fraction unbound
Please state the value as a number alone, without comment.

Name the recorded fraction unbound for `NS(=O)(=O)CC(=O)NCCSc1nonc1/C(=N/O)Nc1cccc(Cl)c1` .
0.043

###

# TESTED_TARGET: Indoleamine 2,3-dioxygenase 1 (Homo sapiens)
# ASSAY_TEXT: Inhibition of IDO1 in interferon-gamma-induced human SKOV3 cells assessed as N-formylkynurenine formation using L-tryptophan as substrate measured after 24 hrs by fluorescence assay
pIC50: −log10 of the molar value.
ATTRIBUTE_MEASURED: pIC50

CC1(C(=O)NCCSc2nonc2/C(=N/O)Nc2ccc(F)c(C(F)F)c2)CCN1 (stereo not given) : 7.80

1: NS(=O)(=O)CC(=O)NCCSc1nonc1/C(=N/O)Nc1ccc(F)c(C(F)F)c1
2: N#CCC(=O)NCCSc1nonc1/C(=N/O)Nc1ccc(F)c(C(F)F)c1
Which has the higher pIC50, 1 or 2 ? Please respond with the label that marks your chosen entry.
2
(2: 8.19, 1: 7.89)

A: CS(=O)(=O)CC(=O)NCCSc1nonc1/C(=N/O)Nc1ccc(F)c(C(F)F)c1
B: NS(=O)(=O)NCCSc1nonc1/C(=N/O)Nc1ccc(F)c(Br)c1
Pick one: A or B . Which one has the lower reported pIC50? Please respond with the label that marks your chosen entry.
A
(A: 7.85, B: 8.55)

a: O=C(NCCSc1nonc1/C(=N/O)Nc1ccc(F)c(C(F)F)c1)C1CS(=O)(=O)C1
b: N#Cc1cccc(N/C(=N\O)c2nonc2SCCNC(=O)CS(N)(=O)=O)c1
c: NS(=O)(=O)NCC(=O)NCCSc1nonc1/C(=N/O)Nc1ccc(F)c(C(F)F)c1
Order each entry by recorded pIC50, climbing from the minimum. Please, when replying, give the labels in the order that was requested.
b, c, a

1: NS(=O)(=O)CC(=O)NCCSc1nonc1/C(=N/O)Nc1cccc(C(F)F)c1
2: CS(=O)(=O)NCCSc1nonc1/C(=N/O)Nc1ccc(F)c(Br)c1
Which has the higher pIC50, 1 or 2 ? Please respond with the label that marks your chosen entry.
2
(2: 8.03, 1: 7.77)

###

# TESTED_TARGET: Cytochrome P450 2D6 (Homo sapiens, UniProt P10635)
# Sequence (P10635 whole entry): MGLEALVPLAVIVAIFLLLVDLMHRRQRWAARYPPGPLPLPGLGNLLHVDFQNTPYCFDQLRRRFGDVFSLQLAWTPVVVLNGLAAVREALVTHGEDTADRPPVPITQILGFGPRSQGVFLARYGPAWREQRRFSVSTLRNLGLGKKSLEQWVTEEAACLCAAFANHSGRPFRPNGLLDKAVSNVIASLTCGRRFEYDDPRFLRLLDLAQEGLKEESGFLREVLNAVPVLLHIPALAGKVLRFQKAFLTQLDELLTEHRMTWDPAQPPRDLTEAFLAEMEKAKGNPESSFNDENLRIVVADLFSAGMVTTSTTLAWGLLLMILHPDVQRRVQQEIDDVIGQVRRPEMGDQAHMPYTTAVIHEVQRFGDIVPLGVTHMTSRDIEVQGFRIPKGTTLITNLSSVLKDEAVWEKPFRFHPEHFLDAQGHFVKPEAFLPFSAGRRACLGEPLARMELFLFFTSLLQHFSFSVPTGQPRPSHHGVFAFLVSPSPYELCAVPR
pIC50: −log10 of the molar value.
ATTRIBUTE_MEASURED: pIC50

API: value(readout=pIC50, system=Cytochrome P450 2D6 (Homo sapiens, UniProt P10635)) for record `NS(=O)(=O)CC(=O)NCCSc1nonc1/C(=N/O)Nc1cccc(Cl)c1`
< 5.00

###

# TESTED_TARGET: Cytochrome P450 3A4 (Homo sapiens, UniProt P08684)
# Sequence (P08684 whole entry): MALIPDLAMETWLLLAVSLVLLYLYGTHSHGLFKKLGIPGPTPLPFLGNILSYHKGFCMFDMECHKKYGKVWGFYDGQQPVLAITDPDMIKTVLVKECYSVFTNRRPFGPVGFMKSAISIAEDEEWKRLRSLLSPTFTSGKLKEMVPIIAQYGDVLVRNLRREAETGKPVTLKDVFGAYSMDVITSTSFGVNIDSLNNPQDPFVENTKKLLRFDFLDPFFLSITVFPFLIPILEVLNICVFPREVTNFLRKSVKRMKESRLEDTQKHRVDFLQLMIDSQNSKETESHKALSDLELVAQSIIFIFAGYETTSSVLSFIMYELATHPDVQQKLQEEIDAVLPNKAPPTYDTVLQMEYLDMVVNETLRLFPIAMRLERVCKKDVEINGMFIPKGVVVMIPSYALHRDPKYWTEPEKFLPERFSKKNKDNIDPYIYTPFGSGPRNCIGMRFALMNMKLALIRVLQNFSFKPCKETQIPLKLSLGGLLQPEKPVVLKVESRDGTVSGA
ATTRIBUTE_MEASURED: IC50

API: value(readout=IC50, system=Cytochrome P450 3A4 (Homo sapiens, UniProt P08684)) for record `NS(=O)(=O)CC(=O)NCCSc1nonc1/C(=N/O)Nc1cccc(Cl)c1`
> 10 µM

###

# ASSAY_TEXT: AUC (0 to 24 hrs) in mouse at 10 mg/kg, po by capillary micro-sampling analysis
# Format: ADME, organism-based
# Parameters: dose 10 mg/kg, time < 24 hr, route oral
# TEST_CONDITIONS: in vivo
ATTRIBUTE_MEASURED: AUC(0-t) at 24 h (µM·h)

a: NS(=O)(=O)NCC(=O)NCCSc1nonc1/C(=N/O)Nc1ccc(F)c(C(F)F)c1
b: NS(=O)(=O)CC(=O)NCCSc1nonc1/C(=N/O)Nc1cccc(Cl)c1
Which has the higher AUC(0-t) at 24 h, a or b ? Please respond with the label that marks your chosen entry.
a
(a: 30 µM·h, b: 11.9 µM·h)
